biological target: recombinant human PAI-1 (Homo sapiens); experiment: PAI-1 inhibitory activity, Test Method A (tPA fluorogenic substrate, Tris buffer pH8.0, 37 C); format: biochemical; conditions: test compound 25 μM; Test Method A
Provide the recorded Inhibitory Ratio at 25 μM (%) for the entries that follow.
Field: numeric (%). Do not append units.

Record CC1=NN(c2cccc(C(=O)O)c2)C(=O)C1=Cc1ccc(-c2ccc(C)c(Cl)c2)o1 [compound 187] ; system recombinant human PAI-1 (Homo sapiens); Inhibitory Ratio at 25 μM (%) = 54

Record O=C1C(=Cc2ccc(-c3cc([N+](=O)[O-])ccc3O)o2)C(O)=NN1c1cccc(Cl)c1 [compound 165] ; system recombinant human PAI-1 (Homo sapiens); Inhibitory Ratio at 25 μM (%) = 29

Record COC(=O)c1cccc(N2N=C(C(F)(F)F)C(=Cc3ccc(-c4cc(C(F)(F)F)cc(C(F)(F)F)c4)o3)C2=O)c1 [compound 177] ; system recombinant human PAI-1 (Homo sapiens); Inhibitory Ratio at 25 μM (%) = 86

---

Provide the recorded Inhibitory Ratio at 25 μM (%) for the entries that follow.
Biological target: recombinant human PAI-1 (Homo sapiens, UniProt P05121)
Sequence (P05121 24-402): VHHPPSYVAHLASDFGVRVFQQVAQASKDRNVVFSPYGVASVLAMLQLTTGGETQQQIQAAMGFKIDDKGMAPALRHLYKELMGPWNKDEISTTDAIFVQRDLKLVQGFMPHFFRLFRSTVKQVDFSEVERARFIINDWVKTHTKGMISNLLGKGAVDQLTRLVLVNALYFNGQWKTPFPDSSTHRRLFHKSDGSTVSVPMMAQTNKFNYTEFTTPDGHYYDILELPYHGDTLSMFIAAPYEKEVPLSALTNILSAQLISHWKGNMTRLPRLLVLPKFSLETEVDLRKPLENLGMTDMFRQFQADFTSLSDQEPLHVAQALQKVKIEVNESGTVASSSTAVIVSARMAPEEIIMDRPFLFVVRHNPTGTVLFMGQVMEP
Experiment: PAI-1 inhibitory activity, Test Method A (tPA fluorogenic substrate, Tris buffer pH8.0, 37 C)
Format: biochemical
Settings: 25 μM test compound; Test Method A
Description: To this solution, 50 μL solution of 400 μM fluogenic substrate for tPA (Pyr-Gly-Arg-MCA, Peptide Institute, Inc.) adjusted with the same buffer was added, and reacted for 30 minutes at 37° C. The reaction was stopped by adding 50 μL of 2% acetic acid. Fluorescence was measured at the excitation wavelength=360 nm, emission wavelength=460 or 465 nm using a microplate reader (SPECTRAFLUOR or GENios) by TECAN. […]

Sure, the documented Inhibitory Ratio at 25 μM (%) for CC(C)C1=NN(c2ccc(F)c(Cl)c2)C(=O)C1=Cc1cc(O)c(O)cc1O is >99%

Sure, the documented Inhibitory Ratio at 25 μM (%) for COc1ccc(COC(=O)c2cc(C=C3SC(=O)N(Cc4ccc(-c5ccccc5)cc4)C3=O)ccc2O)cc1 is >99%

Sure, the documented Inhibitory Ratio at 25 μM (%) for Cc1cc(C=C2SC(=O)N(Cc3ccc(Cl)c(Cl)c3)C2=O)cc(C(=O)O)c1O is >99%

Sure, the documented Inhibitory Ratio at 25 μM (%) for O=C1SC(=Cc2cc(O)c(O)c([N+](=O)[O-])c2)C(=O)N1Cc1ccc(Cl)c(Cl)c1 is >99%

Sure, the documented Inhibitory Ratio at 25 μM (%) for O=C(O)c1ccc(CN2C(=O)SC(=Cc3ccc(O)c(C(=O)Nc4ccc(Cl)c(Cl)c4)c3)C2=O)cc1 is 80%

Sure, the documented Inhibitory Ratio at 25 μM (%) for COc1cc(C=C2SC(=O)N(Cc3ccc(Cl)c(Cl)c3)C2=O)cc([N+](=O)[O-])c1O is >99%

Sure, the documented Inhibitory Ratio at 25 μM (%) for COC(=O)c1cccc(NC(=O)c2cc(C=C3SC(=O)N(Cc4ccc(Cl)c(Cl)c4)C3=O)ccc2O)c1 is 59%

---

biological target: recombinant human PAI-1 (Homo sapiens); assay: PAI-1 inhibitory activity, Test Method A (tPA fluorogenic substrate, Tris buffer pH8.0, 37 C); assay type: biochemical; conditions: test compound 25 μM; Test Method A
PARAMETER_MEASURED: Inhibitory Ratio at 25 μM (%)
Field: numeric (%). Do not append units.

Sure, the documented Inhibitory Ratio at 25 μM (%) for O=C(O)c1cccc(N2N=C(C(F)(F)F)C(=Cc3ccc(-c4cc(Cl)cc(Cl)c4)o3)C2=O)c1 [compound 176] is 65

Sure, the documented Inhibitory Ratio at 25 μM (%) for CCOc1cc(C=C2C(=O)N(c3cccc(C(F)(F)F)c3)N=C2C)ccc1OCC(=O)O is 32

Sure, the documented Inhibitory Ratio at 25 μM (%) for Cc1cccc(C=C2SC(=O)N(Cc3cc(C(F)(F)F)cc(C(F)(F)F)c3)C2=O)c1O is 46

Sure, the documented Inhibitory Ratio at 25 μM (%) for O=C1C(=Cc2cc(Br)cc(Br)c2O)C(O)=NN1c1ccccc1 is 28

Sure, the documented Inhibitory Ratio at 25 μM (%) for O=C(O)c1cccc(N2N=C(C(F)(F)F)C(=Cc3ccc(-c4cc(Cl)cc(Cl)c4)s3)C2=O)c1 is 43

Sure, the documented Inhibitory Ratio at 25 μM (%) for O=C1C(=Cc2ccc(-c3cc(Cl)cc(Cl)c3)o2)C(C(F)(F)F)=NN1c1cccc([N+](=O)[O-])c1 is 90

Sure, the documented Inhibitory Ratio at 25 μM (%) for CCOC(=O)C1=NN(c2cccc(C(=O)OCC)c2)C(=O)C1=Cc1ccc(-c2cc(Cl)cc(Cl)c2)o1 is 89

Sure, the documented Inhibitory Ratio at 25 μM (%) for O=C(Nc1ccc(CN2C(=O)SC(=Cc3ccc(O)c(O)c3)C2=O)cc1)c1ccccc1 is 60

Sure, the documented Inhibitory Ratio at 25 μM (%) for CC1=NN(c2ccccc2)C(=O)C1=Cc1ccc(-c2cc(C(=O)O)ccc2Cl)o1 is 54

Sure, the documented Inhibitory Ratio at 25 μM (%) for CC(C)C1=NN(c2cc(Cl)cc(Cl)c2)C(=O)C1=Cc1cccc(O)c1O is 92

Sure, the documented Inhibitory Ratio at 25 μM (%) for COC(=O)c1cccc(N2N=C(C(F)(F)F)C(=Cc3ccc(-c4cc(Cl)cc(Cl)c4)s3)C2=O)c1 is 23

Sure, the documented Inhibitory Ratio at 25 μM (%) for CC1=NN(c2ccc(Cl)c(C(=O)O)c2)C(=O)C1=Cc1ccc(-c2cccc(Cl)c2C)o1 is 81

Sure, the documented Inhibitory Ratio at 25 μM (%) for CC(C)(C)C1=NN(c2cccc(C(=O)O)c2)C(=O)C1=Cc1ccc(Cl)c(Cl)c1 is 40

Sure, the documented Inhibitory Ratio at 25 μM (%) for CCOC1=NN(c2ccc([N+](=O)[O-])cc2)C(=O)C1=Cc1ccc(O)c(O)c1O is 39

Sure, the documented Inhibitory Ratio at 25 μM (%) for CC1=NN(c2cccc(C(=O)O)c2)C(=O)C1=Cc1ccc(-c2cccc([N+](=O)[O-])c2)o1 is 32

---

Provide the recorded Inhibitory Ratio at 25 μM (%) for the entries that follow.
molecular target: recombinant human PAI-1 (Homo sapiens, UniProt P05121); assay: PAI-1 inhibitory activity, Test Method A (tPA fluorogenic substrate, Tris buffer pH8.0, 37 C); format: biochemical; conditions: 25 μM test compound; Test Method A

Sure, the documented Inhibitory Ratio at 25 μM (%) for COc1ccc(NC(=O)c2cc(C=C3SC(=O)N(Cc4ccc(Cl)c(Cl)c4)C3=O)ccc2O)cc1OC [compound 432] is 64%

Sure, the documented Inhibitory Ratio at 25 μM (%) for COc1ccc(NC(=O)c2cc(C=C3SC(=O)N(Cc4ccc(-c5ccccc5)cc4)C3=O)ccc2O)cc1OC is >99%

Sure, the documented Inhibitory Ratio at 25 μM (%) for COc1ccc(C)cc1NC(=O)c1cc(C=C2SC(=O)N(Cc3ccc(Cl)c(Cl)c3)C2=O)ccc1O is >99%

Sure, the documented Inhibitory Ratio at 25 μM (%) for CC(C)C1=NN(c2ccc([N+](=O)[O-])cc2)C(=O)C1=Cc1cc(C=Cc2ccccc2)ccc1O is 50%

Sure, the documented Inhibitory Ratio at 25 μM (%) for O=C(Cc1ccccc1)Nc1ccc(CN2C(=O)SC(=Cc3cccc(O)c3O)C2=O)cc1 is 73%

Sure, the documented Inhibitory Ratio at 25 μM (%) for O=C(O)c1cccc(NC(=O)c2cc(C=C3SC(=O)N(Cc4ccc(Cl)c(Cl)c4)C3=O)ccc2O)c1 is 85%

Sure, the documented Inhibitory Ratio at 25 μM (%) for COc1cc(C=C2SC(=O)N(Cc3ccc(Cl)c(Cl)c3)C2=O)cc(C(=O)Nc2cc(C(F)(F)F)ccc2Cl)c1O is 89%

Sure, the documented Inhibitory Ratio at 25 μM (%) for COc1ccc(NC(=O)c2cc(C=C3SC(=O)N(CCc4ccc(Cl)cc4)C3=O)ccc2O)cc1OC is 63%

Sure, the documented Inhibitory Ratio at 25 μM (%) for CC1=NN(c2ccc([N+](=O)[O-])cc2)C(=O)C1=Cc1cc(C=Cc2ccccc2)ccc1O is >99%

Sure, the documented Inhibitory Ratio at 25 μM (%) for COc1ccc(NC(=O)c2cccc(C=C3SC(=O)N(Cc4ccc(Cl)c(Cl)c4)C3=O)c2)cc1OC is 82%

Sure, the documented Inhibitory Ratio at 25 μM (%) for O=C1SC(=Cc2ccc(O)c(-c3c(O)cccc3O)c2)C(=O)N1Cc1ccc(Cl)c(Cl)c1 is >99%

Sure, the documented Inhibitory Ratio at 25 μM (%) for COc1ccc(C=C2SC(=O)N(Cc3ccc(Cl)c(Cl)c3)C2=O)cc1F is 35%

Sure, the documented Inhibitory Ratio at 25 μM (%) for O=C1C(=Cc2cc(O)c(O)c(O)c2)SC(=S)N1Cc1ccc(Cl)c(Cl)c1 is >99%

Sure, the documented Inhibitory Ratio at 25 μM (%) for Cc1cc(C)cc(CN2C(=O)SC(=Cc3ccc(O)c(C(=O)Nc4ccc(O)c(O)c4)c3)C2=O)c1 is >99%

Sure, the documented Inhibitory Ratio at 25 μM (%) for CCOC1=NN(c2ccc([N+](=O)[O-])cc2)C(=O)C1=Cc1c(O)cccc1OC is 66%

Sure, the documented Inhibitory Ratio at 25 μM (%) for O=C(Nc1ccc(O)c(O)c1)c1cc(C=C2SC(=O)N(Cc3ccc(C(F)(F)F)cc3)C2=O)ccc1O is 92%

Sure, the documented Inhibitory Ratio at 25 μM (%) for COc1ccc(NC(=O)c2cc(C=C3SC(=O)N(Cc4ccc(Cl)c(Cl)c4)C3=O)ccc2O)cc1 is 66%

Sure, the documented Inhibitory Ratio at 25 μM (%) for N=C(N)NCCC[C@H](N)C(=O)O.N=C(N)NCCC[C@H](N)C(=O)O.N=C(N)NCCC[C@H](N)C(=O)O.O=C1SC(=Cc2cc(O)c(O)c(O)c2)C(=O)N1Cc1ccc(Cl)c(Cl)c1 is >99%

Sure, the documented Inhibitory Ratio at 25 μM (%) for COc1ccc(COC(=O)c2cc(C=C3SC(=O)N(Cc4ccc(C(F)(F)F)cc4)C3=O)ccc2O)cc1 is 74%

Sure, the documented Inhibitory Ratio at 25 μM (%) for O=C(Nc1ccc(Cl)nc1)c1cc(C=C2SC(=O)N(Cc3ccc(C(F)(F)F)cc3)C2=O)ccc1O is >99%

Sure, the documented Inhibitory Ratio at 25 μM (%) for COC(=O)c1ccc(NC(=O)c2cc(C=C3SC(=O)N(Cc4ccc(Cl)c(Cl)c4)C3=O)ccc2O)cc1OC is 55%

Sure, the documented Inhibitory Ratio at 25 μM (%) for CCOC1=NN(c2ccc([N+](=O)[O-])cc2)C(=O)C1=Cc1cc(C=Cc2ccc(Oc3ccccc3)cc2)ccc1O is >99%

Sure, the documented Inhibitory Ratio at 25 μM (%) for COc1ccc(OC)c(NC(=O)c2cc(C=C3SC(=O)N(Cc4ccc(Cl)c(Cl)c4)C3=O)ccc2O)c1 is 96%

Sure, the documented Inhibitory Ratio at 25 μM (%) for O=C(Nc1cc(C(F)(F)F)ccc1[N+](=O)[O-])c1cc(C=C2SC(=O)N(Cc3ccc(Cl)c(Cl)c3)C2=O)ccc1O is >99%

Sure, the documented Inhibitory Ratio at 25 μM (%) for O=C1SC(=Cc2ccc(Cl)c(O)c2)C(=O)N1Cc1ccc(Cl)c(Cl)c1 is 63%

Sure, the documented Inhibitory Ratio at 25 μM (%) for CC(C)c1ccc(NC(=O)c2cc(C=C3SC(=O)N(Cc4ccc(Cl)c(Cl)c4)C3=O)ccc2O)c(Br)c1 is 94%

Sure, the documented Inhibitory Ratio at 25 μM (%) for O=C(Nc1ccc(O)c(O)c1)c1cc(C=C2SC(=O)N(Cc3cc(Cl)cc(Cl)c3)C2=O)ccc1O is 95%

Sure, the documented Inhibitory Ratio at 25 μM (%) for O=C1C(=Cc2ccc(O)c(O)c2)SC(=S)N1Cc1ccc(C(F)(F)F)cc1 is >99%

Sure, the documented Inhibitory Ratio at 25 μM (%) for COc1ccc(NC(=O)c2cc(C=C3SC(=O)N(Cc4cccc(Oc5ccccc5)c4)C3=O)ccc2O)cc1OC is >99%
